Assignment: determine reported Kpot A,B for the given molecules.
- ASSAY_METHOD_TEXT: Selectivity of guest-induced changes in membrane potential at pH 5.0 for PVC matrix liquid membranes incorporated with o-Tolyloxy-acetic acid decyl ester polymer
- Type: ADME
Answers are plain numbers.

- MOLECULE: "CNC[C@H](O)c1ccc(O)c(O)c1 [EPINEPHRINE]"
  Kpot A,B: 0.089
- MOLECULE: "NCc1ccccc1 [BENZYLAMINE]"
  Kpot A,B: 0.15
- MOLECULE: "NCCc1ccc(O)c(O)c1 [DOPAMINE]"
  Kpot A,B: 1

Count: 2. Required value per item: Kpot A,B.
1. CCCCCCCCN
2. NCCc1ccccc1 [PHENETHYLAMINE]

2.58
1

====

- ASSAY_METHOD_TEXT: Selectivity of guest-induced changes in membrane potential at pH 5.0 for PVC matrix liquid membranes incorporated with o-Tolyloxy-acetic acid ethyl ester polymer
- Assay type: ADME
VALUE_KIND: Kpot A,B
Give bare numbers.

Some compounds with known Kpot A,B results, for comparison:
- COMPOUND: "CNC[C@H](O)c1ccc(O)c(O)c1 [EPINEPHRINE]"
  Kpot A,B: 0.09
- COMPOUND: "CCCCCCCCN"
  Kpot A,B: 3.52
- COMPOUND: "NCCc1ccc(O)c(O)c1"
  Kpot A,B: 1
- COMPOUND: "NCc1ccccc1"
  Kpot A,B: 0.15

Dear colleague, I am looking for the recorded Kpot A,B of the following compound: `NCCc1ccccc1` 1

====

- ASSAY_METHOD_TEXT: Partition coefficient (logP)
- Format: physicochemical
- ASSAY_CONDITIONS: octanol/water
VALUE_KIND: logP
Give bare numbers.

Some compounds with known logP results, for comparison:
- COMPOUND: "NCCc1ccccc1 [PHENETHYLAMINE]"
  VALUE_KIND: "logP"
  VALUE_REPORTED: 1.58
- COMPOUND: "NC12CC3CC(CC(C3)C1)C2 [AMANTADINE]"
  VALUE_KIND: "logP"
  VALUE_REPORTED: 1.77
- COMPOUND: "NCCc1ccc(O)c(O)c1 [DOPAMINE]"
  VALUE_KIND: "logP"
  VALUE_REPORTED: 0.82
- COMPOUND: "CCCCCCCCN"
  VALUE_KIND: "logP"
  VALUE_REPORTED: 2.93
- COMPOUND: "NC[C@H](O)c1ccc(O)c(O)c1 [NOREPINEPHRINE]"
  VALUE_KIND: "logP"
  VALUE_REPORTED: 0.82

Count: 2. Required value per item: logP.
1. CNC[C@H](O)c1ccc(O)c(O)c1 [EPINEPHRINE]
2. CC(C)(C)N [TERT-BUTYLAMINE]

1: 0.59; 2: 0.72

====

- ASSAY_METHOD_TEXT: Selectivity of guest-induced changes in membrane potential at pH 5.0 for PVC matrix liquid membranes incorporated with (2-Butoxy-5-tert-butyl-3-methyl-phenyl)-methanol polymer
- Format: ADME
Classification field: enter Met for Kpot A,B values not below 1, Not met for values below it.

Recorded results for 4 compounds are shown here.
- COMPOUND: "CNC[C@H](O)c1ccc(O)c(O)c1 [EPINEPHRINE]"
  GROUP_LABEL: "Not met"
- COMPOUND: "CC(C)(C)N"
  GROUP_LABEL: "Not met"
- COMPOUND: "NCc1ccccc1"
  GROUP_LABEL: "Not met"
- COMPOUND: "NC12CC3CC(CC(C3)C1)C2"
  GROUP_LABEL: "Met"

Let us examine a further case.
Record `CCCCCCCCN` ; criterion: Kpot A,B no lower than 1. Met? Met

====

- ASSAY_METHOD_TEXT: Selectivity of guest-induced changes in membrane potential at pH 5.0 for PVC matrix liquid membranes incorporated with 6,7,9,10,17,18,20,21-Octahydro-5,8,11,16,19,22-hexaoxa-dibenzo[a,j]cyclooctadecene
- Assay type: ADME
Assignment: determine reported Kpot A,B for the given compounds.
Numbers only.

- COMPOUND: "CCCCCCCCN"
  VALUE_REPORTED: 19
- COMPOUND: "NCCc1ccccc1 [PHENETHYLAMINE]"
  VALUE_REPORTED: 1
- COMPOUND: "CC(C)(C)N [TERT-BUTYLAMINE]"
  VALUE_REPORTED: 0.4

Attention now turns to another entry.
Dear colleague, I am looking for the recorded Kpot A,B of the following compound: NC12CC3CC(CC(C3)C1)C2 [AMANTADINE] 14.8

====

Assignment: determine reported Kpot A,B for the given compounds.
- ASSAY_METHOD_TEXT: Selectivity of guest-induced changes in membrane potential at pH 5.0 for PVC matrix liquid membrane without any host
- Format: ADME

- COMPOUND: "NC12CC3CC(CC(C3)C1)C2 [AMANTADINE]"
  Kpot A,B: 1.2
- COMPOUND: "CC(C)(C)N [TERT-BUTYLAMINE]"
  Kpot A,B: 0.56
- COMPOUND: "NCCc1ccc(O)c(O)c1 [DOPAMINE]"
  Kpot A,B: 1
- COMPOUND: "NCCc1ccccc1 [PHENETHYLAMINE]"
  Kpot A,B: 1
- COMPOUND: "CCCCCCCCN"
  Kpot A,B: 1.68

Count: 2. Required value per item: Kpot A,B.
1. CNC[C@H](O)c1ccc(O)c(O)c1 [EPINEPHRINE]
2. NCc1ccccc1 [BENZYLAMINE]

0.65
0.78
